# assay_remarks: NCI Yeast Anticancer Drug Screen. Data for the bub3 strain (AID 167)
# measurement_parameters: S. cerevisiae bub3 mutant strain, at 50.0 µM, stronger effect = higher value
The panel holds about 79,000 compounds, 15% with a hit somewhere; the sample as a whole holds those more often.
test_readout: growth inhibition (%)
Give the quantity in %, number only.

The examples below pair each entry with its known result.
molecule: C(#Cc1ccccc1)c1ccccc1.[C-]#[O+].[C-]#[O+].[C-]#[O+].[C-]#[O+].[C-]#[O+].[C-]#[O+].[Co].[Co]
units: %
assay_value: 5.2

molecule: O=C1NCCCCC1Cl (stereo not given)
units: %
assay_value: 8.8

molecule: NC1C[S][Sn][O]C1=O (stereo not given)
units: %
assay_value: 4.9

molecule: [N-]=[N+]=CC(=O)OCC(N)C(=O)O (stereo not given)
units: %
assay_value: -6.7

Inquiry: Answer with the recorded growth inhibition of CC1C/C(=C\N=[N+]=[N-])C(=O)O1 (stereo not given) only.
Reply text: 12.4

Inquiry: Answer with the recorded growth inhibition of COc1cc2c(cc1O)CC1CC(=O)CCN1C2 (stereo not given) only.
Reply text: -10.8

Inquiry: Answer with the recorded growth inhibition of N#C[CH2][Sn]([I])([c]1ccccc1)[c]1ccccc1 only.
Reply text: -0.25

Inquiry: Answer with the recorded growth inhibition of C1CC[N-]CC1.CC(=N\O)/C(C)=N/O.CC(=N\O)/C(C)=N/O.C[C-]=O.[Co+2] only.
Reply text: 19

Inquiry: Answer with the recorded growth inhibition of CC12CC3OC(=O)C1COC14OC5(C2C1=O)C(O)(CCC1C4CC(O)C2(O)CC=CC(=O)C12C)C(=O)OC35C (stereo not given) only.
Reply text: -1.3

Inquiry: Answer with the recorded growth inhibition of C/C(CC(=O)Nc1ccc([N+](=O)[O-])cc1)=N\Nc1ccc([N+](=O)[O-])cc1[N+](=O)[O-] only.
Reply text: 32.5
